Tested on: HEp-2
Assay: The concentration required to produce a 50% inhibition of clone formation in human epidermoid carcinoma H-Ep-2 cells
Type: functional, cell-based
pIC50: −log10 of the molar value.
OBSERVED PROPERTY: pIC50

Task item: Dear colleague, I am looking for the recorded pIC50 of the following compound: Cc1cn([C@@H]2C[C@H](O)[C@@H](CO)S2)c(=O)[nH]c1=O
Reply: 4.60

[I] O=c1ccn([C@H]2C[C@H](O)[C@@H](CO)S2)c(=O)[nH]1
[II] Cc1cn([C@H]2C[C@H](O)[C@@H](CO)S2)c(=O)[nH]c1=O [4'-THIOTHYMIDINE]
Task item: Determine, for I and II , which has the greater value of pIC50. Answer format: the label of the selected item.
Reply: II
(II: 6.85, I: 5.68)

* * *

System: L1210
Test: The concentration required to produce a 50% reduction in the rate of cell proliferation in murine leukemia L1210 cells
Type: functional, cell-based
Conditions: Mus musculus
pIC50: −log10 of the molar value.
OBSERVED PROPERTY: pIC50

In the examples that follow, each entry is paired with its recorded pIC50.
Task item: What pIC50 appears in the records for this molecule with L1210? O=c1ccn([C@H]2C[C@H](O)[C@@H](CO)S2)c(=O)[nH]1
Reply: 5.57

Task item: And what about the molecule Nc1ccn([C@H]2C[C@H](O)[C@@H](CO)S2)c(=O)n1 ?
Reply: 5.92

[a] Cc1cn([C@@H]2C[C@H](O)[C@@H](CO)S2)c(=O)[nH]c1=O
[b] Cc1cn([C@H]2C[C@H](O)[C@@H](CO)S2)c(=O)[nH]c1=O
[c] Nc1ccn(C2C[C@H](O)[C@@H](CO)S2)c(=O)n1 (stereo not given in full)
Task item: List the 3 entries from lowest pIC50 to highest pIC50 value. List the labels, following the order given in the request.
Reply: a, c, b
